Biological target: LAP2, Q96RT1
Sequence (Q96RT1 other isoform, or with tags, fused parts or gaps): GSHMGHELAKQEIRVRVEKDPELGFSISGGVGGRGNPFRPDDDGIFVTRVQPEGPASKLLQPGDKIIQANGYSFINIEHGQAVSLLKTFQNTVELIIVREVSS
Experiment: holdup assay
Design: key: below the threshold = too weak to quantify, mostly under pKd 3.1 to 4
Settings: plain residues with an end cap or a label only (N-terminal biotin on a linker: ttds)
# pKd per record follows
readout_type: pKd

# binder, value
records = [
    ("KQVVPFSSSV [GDA, Q9Y2T3]", 3.88),
    ("PPRQRSETQV [HPV82-E6, Q9IR59]", 3.45),
    ("FVETQHQTQV [FAT3, Q8TDW7]", 3.65),
    ("SSIDLWETAL [SLC15A5, A6NIM6]", 4.9),
]
